Numbers sourced from patent US7912651B2.

# Test system: HUVEC cells
# experimental.details: Optimized inflammatory assay combination: HUVEC treated with IL-1+TNF-α+IFN-γ, readout parameters by cell-based ELISA
# Design: species or system human
# condition: HUVEC, TNF-α (5 ng/ml)+IFN-γ (100 ng/ml)+IL-1, 24 hours
recorded.endpoint: activity (altered biomap) in the optimized assay combination

1. CC(Cc1ccc(O)c(O)c1)C(C)Cc1ccc(O)c(O)c1 (centres unmarked) [NHGA, nordihydroguaiaretic acid] : altered biomaps
2. N#CC(C#N)=Cc1ccc([N+](=O)[O-])c(O)c1 [AG126] : active compounds
3. COc1cccc(-c2cc(=O)c3ccccc3o2)c1N [PD098059] : altered biomaps
4. S=C(S)N1CCCC1 [PDTC, pyrrolidine dithiocarbamate] : altered biomaps
5. O=C(NC1=CC(=O)c2ccccc2C1=O)c1ccccc1 [PPM-18] : active compounds
